Recorded % Inhibition by entry
tested on: P. falciparum stage V gametocytes; design: BacTiter-Glo ATP luminescence viability of purified stage V gametocytes in 384-well plates, per cent inhibition versus DMSO; details: 48 h, 5 µM; inhibitor
Hit rate of the full screen: of about 13,000 compounds, about 3,200 (25%) showed an effect of 50% or more. The list shows a part of the results.

As a guide, the following entries are already answered.
>>> measvalue("Nc1ncc(-c2ccsc2)cc1-c1nc2ccccc2[nH]1 [TCMDC-133557]")
"13.31%"
>>> measvalue("COc1ccc(Cc2cnc(N)nc2N)cc1OCCCOc1ccccc1 [TCMDC-137364]")
"-5.696%"

Given the molecule CCNc1cc(C(=O)N[C@@H](Cc2ccccc2)[C@H](O)CNCc2cc(C#N)ccc2OC)cc(N2CCCC2=O)c1 [TCMDC-141684] and test system P. falciparum stage V gametocytes, the measured % Inhibition is 32.6%

Value (% Inhibition, P. falciparum stage V gametocytes) for record Clc1ccc(Nc2nc(Nc3ccc(Cl)c(Cl)c3)nc(Sc3nc4ccccc4[nH]3)n2)cc1Cl [TCMDC-124069] = -24.51%
